Each item that follows carries a reported Human GIPR cAMP EC50, HEK293T.
Molecular target: T1, full-length human GIPR with an N-terminal FLAG tag, overexpressed on HEK-293T cells (human, UniProt P48546 22-466)
T1 sequence (looked up): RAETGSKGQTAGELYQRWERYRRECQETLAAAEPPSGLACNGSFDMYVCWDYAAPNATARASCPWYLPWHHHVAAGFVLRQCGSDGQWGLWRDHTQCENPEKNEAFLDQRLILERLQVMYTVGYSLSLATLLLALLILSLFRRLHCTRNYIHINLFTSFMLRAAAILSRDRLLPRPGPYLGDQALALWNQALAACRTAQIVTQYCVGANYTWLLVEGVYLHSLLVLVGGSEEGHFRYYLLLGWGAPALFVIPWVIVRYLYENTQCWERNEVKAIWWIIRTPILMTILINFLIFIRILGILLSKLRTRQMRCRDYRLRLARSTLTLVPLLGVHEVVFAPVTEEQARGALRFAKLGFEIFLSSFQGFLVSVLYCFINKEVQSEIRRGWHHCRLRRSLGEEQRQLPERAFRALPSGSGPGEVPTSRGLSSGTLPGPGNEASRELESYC
Test: cell-based or functional assay
Starred links: 1 amine or outer side, 2 acyl side, 3 side chain; linkers in the order of their positions; H or OH if unused. Non-standard residues stand in square brackets, D forms with d. Groups on a side chain read outwards from the residue. No end group written: not given here. *: point of attachment. C18 diacid = O=C(O)CCCCCCCCCCCCCCCCC(=O)*; γGlu = O=C(O)[C@H](CCC(=O)[*:2])N[*:1]; NMeY = CN[C@@H](Cc1ccc(O)cc1)C(=O)O; AEEA = NCCOCCOCC(=O)O; E∗ = not defined here; K∗ = not defined here; Aib = CC(C)(N)C(=O)O
observationType: Human GIPR cAMP EC50, HEK293T (pM)

# binder, observationType, observedValue
rows = [
    ("Me-Y[Aib]EGTFISDYSIALDR[E∗]HQ[K∗]NFVNWLLAQK([AEEA-AEEA-γGlu-C18 diacid])PSSGAPPPS-NH2 (not fully specified (residue 1); reading uncertain; also: E* at 17 and K* at 20 marked, meaning not given here) [Compound No. 183]", "Human GIPR cAMP EC50, HEK293T", 0.7),
    ("[NMeY]AEGTFISDYSI[Aib]LDR[Aib]AQ[Aib]K([AEEA-AEEA-γGlu-γGlu-C18 diacid])FVNWLLAQRG-OH [Compound No. 218]", "Human GIPR cAMP EC50, HEK293T", 0.5),
]
